Reported values of self-cleavage for individual entries
B1: HDV Ribozyme (parent)
chain: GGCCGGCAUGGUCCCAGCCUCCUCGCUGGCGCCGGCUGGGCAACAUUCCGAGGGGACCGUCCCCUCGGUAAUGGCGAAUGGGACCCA

Variants of: B1
Test: self-cleavage, relative activity (ratio to wild type); higher = more cleavage; co-transcriptional

[
  {
    "mutation notation": "G25C G54U",
    "value observed": 0.0652
  }
]

Can you share its self-cleavage? I mean this variant: C30A G50U
0.729

Can you share its self-cleavage? I mean this variant: U23C C48G
1.05

Can you share its self-cleavage? I mean this variant: A16C G80A
0.406
